- Test system: SK-MEL-5 melanoma
- testMethodNotes: NCI tumour cell line growth inhibition, 48 h
quantityName: TGI

Query string: # input compound: C1=CC(=NN=P(c2ccccc2)(c2ccccc2)c2ccccc2)C=C1 ; wanted: its TGI
Result string: > 100 µM

Query string: # input compound: CN1c2ccccc2S(=O)(=O)n2c(COc3ccccc3)nnc21 ; wanted: its TGI
Result string: > 100 µM

====

- System: A549 NSCLC
- testMethodNotes: NCI tumour cell line growth inhibition, 48 h
Recorded TGI values for a group of compounds are listed next.

Query string: # input compound: O=[P+](O)c1cccnc1 ; wanted: its TGI
Result string: > 100 µM

Query string: # input compound: O=C(O)c1c[nH]c2c(ccc3[nH]cc(C(=O)O)c(=O)c32)c1=O ; wanted: its TGI
Result string: > 100 µM

Query string: # input compound: CC(=O)Oc1cc(OC(C)=O)c2c(c1)OC(c1ccc(OC(C)=O)c(OC(C)=O)c1)CC2=O (stereo unspecified) ; wanted: its TGI
Result string: > 100 µM

====

- System: DU-145 prostate
- testMethodNotes: NCI tumour cell line growth inhibition, 48 h
quantityName: GI50

>>> result("O=C(NC(Cc1ccccc1)C(=O)CCl)OCc1ccccc1 (configuration not stated)")
"10.9 µM"
>>> result("Cc1cc2nc3c4cc([N+](=O)[O-])ccc4n(CCN(C)C)c3nc2cc1C")
"0.71 µM"

Query string: Param readout= GI50; system= DU-145 prostate; entry= Oc1[nH]c2ccccc2c1/C=c1/ccc2c(c1)N=C(c1cc(F)cc(F)c1)N=2 ; returns value.
Result string: 10.2 µM

Query string: Param readout= GI50; system= DU-145 prostate; entry= Cc1nc2cc(Nc3nc(Nc4ccc(F)cc4)nc(N4CCCC4)n3)ccc2n1Cc1ccccc1 ; returns value.
Result string: 1.87 µM

Query string: Param readout= GI50; system= DU-145 prostate; entry= CS(=O)(=O)c1ccc(-c2cnc(NCc3ccco3)n3cnnc23)cc1 ; returns value.
Result string: > 100 µM

====

Recorded TGI values for a group of molecules are listed next.
- Test system: LOX IMVI melanoma
- testMethodNotes: NCI tumour cell line growth inhibition, 48 h

Below, each entry is followed by its recorded TGI result.
>>> result("COC(=O)C1=Cc2cn(S(=O)(=O)c3ccc(C)cc3)c3cccc(c23)C(C=C(C)C)N1C(C)=O (stereo not given)")
"> 100 µM"
>>> result("Cn1cc(-c2ccc3nnc(C(F)(F)c4ccc5ncccc5c4)n3n2)cn1")
"> 100 µM"
>>> result("O=c1cc(NNc2cccc(F)c2)[nH]c(=S)[nH]1")
"> 100 µM"
>>> result("O=C1CCc2ccccc2O1")
"> 100 µM"
>>> result("CCOC(=O)[C@H](CO)Nc1c(O)c2c(c(O)c1Cl)C(=O)C=CC2=O")
"> 10 µM"
>>> result("Cc1cc(C)c(C2=NO[C@@H]3C(=O)N(c4ccc(Cc5ccc(N6C(=O)[C@H]7C(c8c(C)cc(C)cc8C)=NO[C@H]7C6=O)cc5)cc4)C(=O)[C@H]23)c(C)c1")
"> 100 µM"
>>> result("Cn1c(=O)c(-c2c(Cl)cccc2Cl)cc2cnc(Nc3ccc(I)cc3)nc21")
"1.12 µM"
>>> result("CSCC(COC(C)=O)(CSC)c1ccncc1")
"> 100 µM"

Query string: Param readout= TGI; system= LOX IMVI melanoma; entry= CC(C)(CO)NC(=O)c1cccs1 ; returns value.
Result string: > 100 µM

Query string: Param readout= TGI; system= LOX IMVI melanoma; entry= COc1c(C)c(C/C=C(\C)CCCCO)c(OC)c2ccccc12 ; returns value.
Result string: 37.6 µM

====

- System: MOLT-4 leukemia
- testMethodNotes: NCI tumour cell line growth inhibition, 48 h
Recorded GI50 values for a group of compounds are listed next.

>>> result("CCCCCCn1c2c(c3c(O)cccc31)C(=O)c1ccccc1-2")
"28.7 µM"
>>> result("Oc1[nH]c2ccccc2c1/C=c1/ccc2c(c1)N=C(c1cc(F)cc(F)c1)N=2")
"3.53 µM"
>>> result("O=C1Nc2c(ccc(Cl)c2Cl)/C1=C\\c1cc(C(F)(F)F)cc(C(F)(F)F)c1")
"2.09 µM"
>>> result("O=C(NC(Cc1ccccc1)C(=O)CCl)OCc1ccccc1 (stereo not given)")
"3.56 µM"
>>> result("COc1ccc(/C=C/C(=O)c2ccccc2)cc1OC")
"17.9 µM"
>>> result("O=C(Nc1nc(-c2ccccc2Cl)cs1)c1cc(-c2ccc(Cl)cc2)nc2ccc(Cl)cc12")
"3.42 µM"
>>> result("Nc1nc(Cl)nc2c1ncn2C1OC(CO)C(O)C1O (stereo not given)")
"0.493 µM"
>>> result("CC/C(=C(/CC)c1ccc(O)cc1)c1ccc(O)cc1")
"5.29 µM"
>>> result("[Au+].c1c[n-]cn1.c1ccc([PH+](c2ccccc2)c2ccccc2)cc1")
"2.07 µM"

Moving on to the next compound.
Query string: # input compound: C=CCCCC(O)c1ccc(C(O)c2cnc3ccccc3c2)o1 (stereo not given) ; wanted: its GI50
Result string: 32.1 µM

====

Recorded TGI values for a group of compounds are listed next.
- System: CCRF-CEM leukemia
- testMethodNotes: NCI tumour cell line growth inhibition, 48 h
Numeric answer only, unit µM assumed.

>>> readoutnumber("CN(C)CCOc1ccc2[nH]c(C(=O)N3CC(CCl)c4ccc(N)cc43)cc2c1 (stereo unspecified)")
0.975

Query string: # input compound: CCOC(=O)C1=C(C)N(c2ccc(Cl)cc2)C2(O)C=CC(Nc3ccc(Cl)cc3)=C3C(=O)N(c4ccccc4)C(=O)C312 (stereo unspecified) ; wanted: its TGI
Result string: 8.39

Query string: # input compound: CCCCC1N=CNc2c1ccc1c2[nH]c2ccccc21 (stereo unspecified) ; wanted: its TGI
Result string: 5.89

Query string: # input compound: O=C(CBr)NCCc1c[nH]c2ccccc12 ; wanted: its TGI
Result string: 0.552

Query string: # input compound: COc1ccccc1[C@@H]1CCC2CC[C@@H](c3ccccc3OC)[N+]21Cc1ccccc1 (stereo partly specified) ; wanted: its TGI
Result string: 20.3

Query string: # input compound: Cc1ccc(S(=O)(=O)OC2CSSCC2OS(=O)(=O)c2ccc(C)cc2)cc1 (stereo unspecified) ; wanted: its TGI
Result string: 28.3

====

Recorded TGI values for a group of compounds are listed next.
- Tested on: K-562 leukemia
- testMethodNotes: NCI tumour cell line growth inhibition, 48 h

>>> result("Cc1cc(N(CCC#N)CCC#N)ccc1CC1N=C(c2ccccc2)OC1=O (stereo not drawn)")
"> 100 µM"

Query string: # input compound: O=C(CBr)NCCc1c[nH]c2ccccc12 ; wanted: its TGI
Result string: 8.41 µM

Query string: # input compound: COc1cc(O)c2c(=O)c(OC)c(-c3ccc(OC)c(OC)c3)oc2c1.[Sn] ; wanted: its TGI
Result string: > 100 µM

Query string: # input compound: [Au+].c1c[n-]cn1.c1ccc([PH+](c2ccccc2)c2ccccc2)cc1 ; wanted: its TGI
Result string: 30.4 µM

Query string: # input compound: CN(CC1NCCCC1O)C12CC3CC(CC(C3)C1)C2 (stereo not drawn) ; wanted: its TGI
Result string: > 100 µM

Query string: # input compound: CNC(=O)c1cc(Oc2ccc3nc(NC(=O)Nc4cc(C(F)(F)F)cc(C(F)(F)F)c4)sc3c2)ccn1 ; wanted: its TGI
Result string: 4.86 µM

Query string: # input compound: CP(=O)(O)C(N)c1ccccc1 (stereo not drawn) ; wanted: its TGI
Result string: > 100 µM

Query string: # input compound: CN(C)CCNC(=O)c1cccc2[nH]c(-c3ccc(Cl)cc3)nc12 ; wanted: its TGI
Result string: 12.6 µM

Query string: # input compound: COc1cc(/C=C/C2=NN(c3cccc(S(=O)(=O)O)c3)C3(C2)SCC(=O)N3c2nc3ccccc3s2)cc(OC)c1OC (stereo not drawn) ; wanted: its TGI
Result string: > 100 µM

Query string: # input compound: C/C(CC(=O)Nc1cccc(C)c1C)=N\NC(N)=S ; wanted: its TGI
Result string: > 100 µM

Query string: # input compound: COc1cccc(/C=C2\CCc3ccccc3C2=O)c1 ; wanted: its TGI
Result string: 57.1 µM

Query string: # input compound: O=c1cc(NNc2cccc(F)c2)[nH]c(=S)[nH]1 ; wanted: its TGI
Result string: > 100 µM

Query string: # input compound: COc1ccc(/C=C/C(=O)c2ccccc2)cc1OC ; wanted: its TGI
Result string: > 100 µM

Query string: # input compound: COc1cc2c(cc1OC)-c1[nH]c3ccc([N+](=O)[O-])cc3c1CC(=O)N2 ; wanted: its TGI
Result string: > 100 µM

Query string: # input compound: COCC1N=C(c2cc(OC)c(OC)c(OC)c2-c2cc3c(cc2[C@@H](C)O)OCO3)O[C@H]1c1ccccc1 (stereo partly drawn) ; wanted: its TGI
Result string: > 100 µM

Query string: # input compound: Cc1cc2c(cc1-c1cc3c(cc1C)C(C(C)C)=C(O)C(=O)/C3=C\Nc1ccccn1)/C(=C/Nc1ccccn1)C(=O)C(O)=C2C(C)C ; wanted: its TGI
Result string: > 100 µM

Query string: # input compound: C1=CC(=NN=P(c2ccccc2)(c2ccccc2)c2ccccc2)C=C1 ; wanted: its TGI
Result string: > 100 µM

Query string: # input compound: O=C(O)c1ccccc1C1c2ccc(Cl)cc2Oc2cc(Cl)ccc21 ; wanted: its TGI
Result string: > 100 µM

Query string: # input compound: O=C(NCCCc1cn[nH]c(=O)n1)c1cccc2nc3ccccc3nc12 ; wanted: its TGI
Result string: > 100 µM

Query string: # input compound: O=c1sc(-c2nc3ccccc3[nH]2)c(/N=C/c2ccccc2)n1-c1ccccc1 ; wanted: its TGI
Result string: > 100 µM

Query string: # input compound: O=C(CC(=O)N1N=C(c2ccccc2)C(N=Nc2ccccc2Cl)C1=O)Nc1ccccc1Cl (stereo not drawn) ; wanted: its TGI
Result string: > 100 µM

Query string: # input compound: O=C1Nc2c(ccc(Cl)c2Cl)/C1=C\c1cc(C(F)(F)F)cc(C(F)(F)F)c1 ; wanted: its TGI
Result string: 5.97 µM

Query string: # input compound: CCN(CCN(CC)C(=O)NC)C(=O)NC ; wanted: its TGI
Result string: > 100 µM

// data source = PubChem BioAssay (NCI)
